Test system: ATP;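 also: ATP exposure 15 min at 22 °C before imaging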
run_description: switch fluorescence ratio, 500 uM ATP over buffer (Cy3 cluster intensity, sum of 5 cycles each) (fold (ratio)); higher = stronger signal-on switching upon ATP binding; sequences stand for … in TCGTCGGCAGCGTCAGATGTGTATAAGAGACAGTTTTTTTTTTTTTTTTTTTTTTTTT…TC
test_conditions: aptamer strand: ATP DNA aptamer (quencher-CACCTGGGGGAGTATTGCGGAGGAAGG + anchor), 100 nM annealed; ATP concentration: 500 uM

# record_sequence, switch fluorescence ratio
records = [
    ("ATTGAAGCTT", 1.01),
    ("CATCCGGCGG", 1.17),
    ("CGCATGTCGA", 1.03),
    ("GTGGCAACAA", 0.984),
    ("GTACTACCTA", 1.14),
    ("TTACCACAGC", 1.05),
    ("ATGGGAAGGC", 0.983),
    ("GAGATGTTTA", 0.987),
    ("TTTTTGGGTG", 1.03),
    ("TACTATATGG", 1.03),
    ("TTATACGGTT", 1.01),
    ("TTTTAATAGT", 1.01),
    ("AATCAGCATT", 1.08),
    ("CTTTTGACTG", 1.05),
    ("GCATCGTGCG", 1.01),
    ("ATTCTGACCG", 1.09),
    ("GGAGTCTAGC", 0.982),
    ("TTCGAGGTTT", 0.982),
    ("TCCGTTTCTG", 0.971),
    ("AGGACTTTAG", 0.943),
]

These data points were gathered from the supplement of paper PMC10126150.
